melting point values, listed per item
quantity: melting point

compound	value
COc1cc(N/C=N/O)cc(OC)c1OC [Comp. 103]	143 to 146 °C
O=C(c1ccccc1)c1ccc(N/C=N/O)cc1 [Comp. 239]	182.5 to 183 °C
CCCCc1ccccc1N/C=N/O [Comp. 3]	84.5 to 85.5 °C
O/N=C/Nc1ccc(OCC2CCO2)cc1 (stereo not shown) [Comp. 409]	145 to 146 °C
CN(C)CC(C)(C)COc1ccc(N/C=N/O)cc1 [Comp. 403]	101.5 to 102 °C
C#CCCOc1ccc(N/C=N/O)cc1 [Comp. 335]	139 to 141 °C
CSCCCOc1ccc(N/C=N/O)cc1 [Comp. 414]	132 to 133.5 °C
O/N=C/Nc1ccc(OCc2ccoc2)cc1 [Comp. 368]	165.5 to 166 °C
Cc1ncsc1CCOc1ccc(N/C=N/O)cc1 [Comp. 353]	158 to 160 °C
COc1ccc(C(C)(C)C)cc1N/C=N/O [Comp. 6]	119.5 to 120.5 °C
O/N=C/Nc1ccc(OCc2ccccn2)cc1 [Comp. 345]	159.5 to 161 °C
O/N=C/Nc1ccc(Cl)cc1 [Comp. 15]	155.5 to 156 °C
O/N=C/Nc1ccc(OCCCc2cccnc2)cc1 [Comp. 363]	154 to 155 °C
O/N=C/Nc1ccc(OCC2COc3ccccc3O2)cc1 (stereo not shown) [Comp. 410]	153 to 155 °C
O/N=C/Nc1ccccc1-c1ccccc1 [Comp. 234]	111 to 113 °C
C#CCOc1ccc(N/C=N/O)cc1 [Comp. 227]	139 to 141 °C
COC(=O)c1cc(N/C=N/O)cc(C(=O)OC)c1 [Comp. 129]	183 to 183.5 °C
O/N=C/Nc1ccc(F)cc1F [Comp. 50]	155.5 to 156.5 °C
O/N=C/Nc1ccc(C(F)(F)F)cc1 [Comp. 27]	140.5 to 142 °C
CC(C)c1ccc(N/C=N/O)c(Br)c1 [Comp. 58]	146.5 to 148 °C
Cc1ccc(Cl)c(N/C=N/O)c1 [Comp. 14]	151 to 153 °C
OCC(O)COc1ccc(N/C=N/O)cc1 (stereo not shown) [Comp. 436]	140.5 to 141 °C
Cc1cc(NC(=O)c2ccccc2)c(Cl)cc1N/C=N/O [Comp. 276]	207 to 207.5 °C
O/N=C/Nc1ccc(OCCN2CCOCC2)cc1 [Comp. 355]	141 to 142 °C
Cc1ccc(F)c(N/C=N/O)c1 [Comp. 43]	123 to 124 °C
Cc1ccc(N/C=N/O)cc1C [Comp. 13]	116 to 118 °C
Cc1cc(N/C=N/O)ccc1Br [Comp. 51]	157 to 158 °C
O/N=C/Nc1cccc(Br)c1 [Comp. 82]	133.5 to 134.5 °C
CCCCCc1ccc(N/C=N/O)cc1 [Comp. 7]	122.5 to 124 °C
CSc1ccc(COc2ccc(N/C=N/O)cc2)cc1 [Comp. 387]	163 to 164 °C
Cc1cc(I)ccc1N/C=N/O [Comp. 47]	166 to 166.5 °C
O/N=C/Nc1c(Br)cccc1Br [Comp. 33]	171 °C
O/N=C/Nc1ccc(Br)cc1Br [Comp. 34]	163 to 163.5 °C
CC#CCCOc1ccc(N/C=N/O)cc1 [Comp. 337]	135 to 136.5 °C
CCCc1ccc(N/C=N/O)cc1 [Comp. 31]	131 to 132 °C
O/N=C/Nc1ccc(OCCSc2ccccn2)cc1 [Comp. 359]	132.5 to 134.5 °C
CC1(C)OCC(COc2ccc(N/C=N/O)cc2)O1 (stereo not shown) [Comp. 348]	128.5 to 129.5 °C
O/N=C/Nc1ccc(OCCCn2cccc2)cc1 [Comp. 412]	130 to 130.5 °C
CCCCCCc1ccc(N/C=N/O)cc1 [Comp. 9]	108 to 110 °C
O/N=C/Nc1ccc(Cl)cc1F [Comp. 25]	142.5 to 144.5 °C
O/N=C/Nc1ccc(/C=C/c2ccccc2)cc1 [Comp. 237]	197.5 to 198 °C
O=C1CCCN1CCCOc1ccc(N/C=N/O)cc1 [Comp. 408]	177 to 177.5 °C
CCOC(=O)Cc1ccc(N/C=N/O)cc1 [Comp. 122]	106 to 107.5 °C
O/N=C/Nc1ccc(OCCC2CCCCC2)cc1 [Comp. 341]	129.5 to 133 °C
O/N=C/Nc1ccc(OCc2cccs2)cc1 [Comp. 350]	168 to 168.5 °C
NS(=O)(=O)c1ccccc1N/C=N/O [Comp. 236]	130.5 to 131.5 °C
O/N=C/Nc1ccc(OCCCc2ccncc2)cc1 [Comp. 366]	188 to 189 °C
O/N=C/Nc1ccc(OCc2ccccc2)cc1 [Comp. 343]	166.5 to 167 °C
O/N=C/Nc1cccc(C(F)(F)F)c1 [Comp. 46]	100.5 to 102 °C
